Please respond with reported Potency (pEC50 ± S.E.M.), human ortholog for every item in the list.
Molecular target: T1, human CaSR wild type (hCaSR WT) (Homo sapiens, UniProt P41180, E1011Q)
T1 construct: mGlu5 signal peptide (N, cleaved yes); expressed in transfected cells
T1 sequence (P41180 20-1078 E1011Q): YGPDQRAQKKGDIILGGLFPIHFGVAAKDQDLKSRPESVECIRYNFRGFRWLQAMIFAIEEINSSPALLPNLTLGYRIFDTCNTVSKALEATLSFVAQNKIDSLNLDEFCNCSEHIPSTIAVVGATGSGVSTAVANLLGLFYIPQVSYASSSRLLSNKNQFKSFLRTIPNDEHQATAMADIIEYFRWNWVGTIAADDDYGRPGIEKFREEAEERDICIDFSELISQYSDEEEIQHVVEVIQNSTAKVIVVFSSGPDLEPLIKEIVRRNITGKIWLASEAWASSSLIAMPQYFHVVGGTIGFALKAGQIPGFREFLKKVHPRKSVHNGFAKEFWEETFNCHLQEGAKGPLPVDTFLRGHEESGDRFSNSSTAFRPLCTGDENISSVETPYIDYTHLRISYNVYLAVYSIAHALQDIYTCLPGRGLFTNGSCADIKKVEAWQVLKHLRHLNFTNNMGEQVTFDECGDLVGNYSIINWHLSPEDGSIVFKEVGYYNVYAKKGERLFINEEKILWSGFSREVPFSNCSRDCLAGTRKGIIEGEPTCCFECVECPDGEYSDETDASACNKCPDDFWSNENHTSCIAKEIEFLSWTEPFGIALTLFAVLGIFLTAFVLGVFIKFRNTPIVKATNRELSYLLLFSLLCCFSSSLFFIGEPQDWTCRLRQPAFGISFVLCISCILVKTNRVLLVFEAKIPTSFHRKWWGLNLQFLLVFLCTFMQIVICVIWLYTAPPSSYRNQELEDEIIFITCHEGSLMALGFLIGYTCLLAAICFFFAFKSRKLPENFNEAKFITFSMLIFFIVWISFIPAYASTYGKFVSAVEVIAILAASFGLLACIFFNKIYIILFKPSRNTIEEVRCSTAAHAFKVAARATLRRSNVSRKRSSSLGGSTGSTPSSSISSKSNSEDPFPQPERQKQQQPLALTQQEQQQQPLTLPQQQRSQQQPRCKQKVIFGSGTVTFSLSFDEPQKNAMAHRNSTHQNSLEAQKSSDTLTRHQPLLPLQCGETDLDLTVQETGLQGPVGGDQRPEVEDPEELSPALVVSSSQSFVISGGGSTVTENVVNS
Test: IP1 accumulation assay, Flp-In HEK293 HA-hCaSR WT cells
Format: cell-based
Conditions: IP1 accumulation at EC20 Ca2+; three independent experiments in triplicate

Q: Tell me its Potency (pEC50 ± S.E.M.), human ortholog given Nb10: llama-derived CaSR-specific nanobody acting as PAM, SEQ ID NO:3 (protein, CaSR Nb10) VHH: QVQLVESGGGLVQPGDSLRVSCAASGGSFRSYAMAWFRQAPGKEREFVAAMSGTYGSTIYSDSMKGRFTISRDNAKKMVYLRMNSLRPEDTAVYYCAGYYSGAYYGTPKTDYTEYDSWGQGTQVTVSS as the entry.
Result: 6.33 ± 0.03

Q: Tell me its Potency (pEC50 ± S.E.M.), human ortholog given Nb2: llama-derived CaSR-specific nanobody acting as PAM, SEQ ID NO:9 (protein, CaSR Nb2) VHH: QVQLVESGGGLVQAGSSLRLSCAASGRTFSNYRMAWFRQAPGKEREFVAVISRGGGGADYADSVKGRFTISRDNVKNTVSLQMNSLKPEDTAVYFCAARISGFSYYTSVDRYDYWGQGTQVTVSS as the entry.
Result: 6.71 ± 0.08

Q: Tell me its Potency (pEC50 ± S.E.M.), human ortholog given Nb4: llama-derived CaSR-specific nanobody acting as PAM, SEQ ID NO:5 (protein, CaSR Nb4) VHH: QVQLVESGGGLVQAGGSLRLSCAASGRTFSTYRMGWFRQGLGKEREFVAAITANGVRTFYTDSVKGRFTISRDNAKNTLYLQMNSLQPDDTAVYLCAARRKGIFTVQQAQDITDWDYWGQGTQVTVSS as the entry.
Result: 7.08 ± 0.13
